Target: Homeobox protein Hox-A13 (Mus musculus) (UniProt Q62424)
Sequence (Q62424 whole entry, looked up): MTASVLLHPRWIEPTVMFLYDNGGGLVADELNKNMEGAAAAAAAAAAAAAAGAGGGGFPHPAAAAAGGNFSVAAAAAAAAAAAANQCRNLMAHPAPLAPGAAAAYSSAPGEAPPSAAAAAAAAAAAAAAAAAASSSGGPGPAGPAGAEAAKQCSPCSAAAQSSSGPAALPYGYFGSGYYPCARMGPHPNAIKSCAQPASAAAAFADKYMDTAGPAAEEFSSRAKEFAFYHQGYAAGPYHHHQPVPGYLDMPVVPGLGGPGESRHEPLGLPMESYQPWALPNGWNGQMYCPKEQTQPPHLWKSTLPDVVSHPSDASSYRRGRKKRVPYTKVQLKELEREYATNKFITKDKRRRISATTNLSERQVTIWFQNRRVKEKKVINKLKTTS
Experiment: inhibitors of HoxA13-DNA binding, primary screen, biochemical, fluorescence polarization, labeled oligonucleotide (AID 1185)
Conditions: 15 min, higher = more signal, called active from +8 up or from −8 down
measured attribute: z-score
# respond with the number and nothing more

The reported z-score of the compound NCCCCCNC(=O)[C@@H]1C[C@@H]2C(=O)NCC(=O)N2[C@@H]1c1cccc(OCCO)c1 was -1.43

The reported z-score of the compound C=C(/C(=C/C[C@H](OC(C)=O)c1cccc(OCCO)c1)c1cnc2ccccc2c1)C(C)C was -4.29

The reported z-score of the compound CN1C(=O)C2C=CC(C(O)c3cccc4ccccc34)N(N3CCCCC3)C2C1=O (centres undefined) was -4.64

The reported z-score of the compound [N-]=[N+]=Nc1ccccc1C[C@]1(C(N)=O)N=C(c2ccc(OCCCO)cc2)O[C@H]1c1ccccc1N=[N+]=[N-] was -5.32

====

Biological target: Fibroblast growth factor 10 (Homo sapiens)
Assay: FGF10 binders on small-molecule microarrays, primary screen, biochemical, small-molecule microarray, 635 nm fluorescence (AID 1102)
Conditions: FGF10 binding, fluorescence 635 nm, higher = more signal
Heads up, the class ranges for composite z-score are class 0 (below 0.3), class 1 (0.3 to below 0.7), class 2 (0.7 or more)

// query Using the reported composite z-score, which band applies to COCCOC(=O)N1C(=O)[C@@]2(c3cc(C#CCC(C(=O)OC)C(=O)OC)ccc31)[C@H](C(=O)N1CCc3cc(OC)c(OC)cc3C1)[C@H]1C(=O)O[C@H](c3ccccc3)[C@H](c3ccccc3)N1[C@@H]2c1ccc(OCCO)cc1 ?
// result class 2

// query Using the reported composite z-score, which band applies to COC(=O)C(CC#Cc1ccc2c(c1)[C@]1(C(=O)N2)[C@H](C(=O)N2CCN(c3ncccn3)CC2)[C@H]2C(=O)O[C@H](c3ccccc3)[C@H](c3ccccc3)N2[C@@H]1c1ccc(OCCO)cc1)C(=O)OC ?
// result class 2

// query Using the reported composite z-score, which band applies to CC(C)N1CC=CC23O[C@@H]4C=CCOC(=O)[C@@H]4[C@H]2C(=O)N(CCCO)[C@@H]3C1=O (stereo partly drawn) ?
// result class 0

// query Using the reported composite z-score, which band applies to Cc1ccc(S[C@]2(C(=O)NCC(F)(F)F)CC(=O)N(Cc3ccccc3C(F)(F)F)[C@@H]2c2ccc(CO)cc2I)cc1 ?
// result class 0

// query Using the reported composite z-score, which band applies to COC(=O)[C@@]1(Cc2ccccc2)[C@H]2c3cc(C(=O)N(C)C)n(Cc4c(CO)[nH]cc(C)c4=O)c3C[C@H]2CN1C(=O)c1ccccc1 ?
// result class 1

// query Using the reported composite z-score, which band applies to O=C1C[C@@](C(=O)NCCN2CCOCC2)(c2ccc([N+](=O)[O-])cc2)[C@@H](c2ccc(CO)cc2I)N1C1CCCCC1 ?
// result class 2

// query Using the reported composite z-score, which band applies to C=CCC(OC(C)=O)[C@@H]1[C@@H](N(Cc2cc3ccccc3o2)C(=O)c2ccc(C)cc2)c2cc(OCCCO)ccc2N1C(=O)Cc1ccc(OC)cc1 (stereo partly drawn) ?
// result class 0

// query Using the reported composite z-score, which band applies to COC(=O)[C@@]1(Cc2ccc(OC)cc2)[C@H]2c3cc(C(=O)N(C)C)n(Cc4ccc(Cl)c(C(F)(F)F)c4)c3C[C@H]2CN1C(=O)c1ccccc1 ?
// result class 1

// query Using the reported composite z-score, which band applies to C=CCC(OC(C)=O)[C@@H]1[C@@H](N(Cc2ccc(-c3ccccc3)cc2)C(=O)Cc2ccc(F)cc2)c2cc(OCCCO)ccc2N1C(=O)Cc1ccc(OC)cc1 (stereo partly drawn) ?
// result class 0

// query Using the reported composite z-score, which band applies to O=C(NCCCCCNC(=O)/C(Cc1ccccc1)=N/O)OCc1ccccc1 ?
// result class 0

// query Using the reported composite z-score, which band applies to COCCCNC(=O)[C@]1(CCS(=O)(=O)c2ccccc2)N=C(c2ccc(OCCCO)cc2)O[C@@H]1c1ccccc1N=[N+]=[N-] ?
// result class 2
